Below is a list of entries, each paired with its recorded Cell survival value.
# Tested on: THP-1 cells
# Assay Info: survival of monocytes with LPS
# Assay type: cell-based, human
# Condition Summary: 10 uM

[
  {
    "Compound": "Cc1ccc(SC2CCN(c3nc4nonc4nc3-c3cccc(C(=O)OC(C)C)c3)CC2)cc1 [Compound 22]",
    "Cell survival, %": 99
  },
  {
    "Compound": "CCCNC(=O)c1ccc(Nc2nc3nonc3nc2N2CCC(Sc3ccc(C)cc3)CC2)cc1 [Compound 23]",
    "Cell survival, %": 88
  },
  {
    "Compound": "CCOC(=O)c1ccc(Nc2nc3nonc3nc2N2CCN(Cc3ccccc3C)CC2)cc1 [Compound 14]",
    "Cell survival, %": 81
  },
  {
    "Compound": "CCOC(=O)c1ccc(NNc2nc3nonc3nc2N2CCC(Cc3ccccc3)CC2)cc1 [Compound 24]",
    "Cell survival, %": 105
  },
  {
    "Compound": "CCOC(=O)c1ccc(Nc2nc3nonc3nc2NN=Cc2cccc3ccccc23)cc1 [Compound 12]",
    "Cell survival, %": 99
  },
  {
    "Compound": "Cc1cc(C(=O)NCC(C)C)ccc1Nc1nc2nonc2nc1N1CCC(Cc2ccccc2)CC1 [Compound 21]",
    "Cell survival, %": 94
  },
  {
    "Compound": "CCOC(=O)c1ccc(Nc2nc3nonc3nc2N2CCC(C(=O)c3ccccc3)CC2)cc1 [Compound 17]",
    "Cell survival, %": 97
  },
  {
    "Compound": "CC(C)NC(=O)c1ccc(Nc2nc3nonc3nc2N2CCC(Cc3ccccc3)CC2)cc1 [Compound 18]",
    "Cell survival, %": 79
  }
]
